tgt: BRD4(D2) (Homo sapiens (Human), UniProt O60885)
test: Inhibitory activity against BRD4(D2), HTRF assay
Assay type: binding
setup conditions: numeric values
measure name: IC50 (nM)

Cc1nc2ncc(-c3cn(C)c(=O)c4[nH]ccc34)cc2n1C : 10.8
Cc1nc2ncc(-c3cn(C)c(=O)c4[nH]ccc34)cc2n1Cc1ccccc1 : 2.8
CCS(=O)(=O)Nc1cc(-c2cn(C)c(=O)c3[nH]ccc23)nc2c1nc(C)n2Cc1ccc(F)cc1F : 0.5
Cn1cc(-c2cnc3[nH]c(=O)n(Cc4ccc(Cl)cc4)c3c2)c2cc[nH]c2c1=O : 31
CCS(=O)(=O)Nc1cc(-c2cn(C)c(=O)c3[nH]ccc23)nc2c1ncn2Cc1cc(F)cc(F)c1 : 1.2
CSc1ccc(Cn2c(C)nc3ncc(-c4cn(C)c(=O)c5[nH]ccc45)cc32)cc1 : 3.2
Cc1cc2ncc(-c3cn(C)c(=O)c4[nH]ccc34)cc2n1Cc1c(Cl)cccc1Cl : 2.2
Cn1cc(-c2cnc3ccn(Cc4c(Cl)cccc4Cl)c3c2)c2cc[nH]c2c1=O : 2.9

[A] Cc1nc2ncc(-c3cn(C)c(=O)c4[nH]ccc34)nc2n1C(C)c1ccc(Cl)cc1 (centres unmarked)
[B] Cc1[nH]c2ncc(-c3cn(C)c(=O)c4[nH]ccc34)cc2c1C(C)c1c(Cl)ccc(F)c1Cl (centres unmarked)
[C] COc1ccc(Cn2c(C)nc3ncc(-c4cn(C)c(=O)c5[nH]ccc45)cc32)cc1
[D] CCS(=O)(=O)Nc1cc(-c2cn(C)c(=O)c3[nH]ccc23)nc2c1ncn2Cc1ccc(F)cc1F
[E] Cn1cc(-c2cnc3cnn(Cc4ccc(Cl)cc4)c3c2)c2cc[nH]c2c1=O
Task field, ranking: reported IC50, descending order. List labels; respect the requested ordering.
E, B, C, A, D
(E: 7.9 nM, B: 5.3 nM, C: 3 nM, A: 1.8 nM, D: 0.5 nM)

[1] Cc1nc2ncc(-c3cn(C)c(=O)c4[nH]ccc34)cc2n1Cc1ccc(Cl)cc1
[2] Cc1nc2ncc(-c3cn(C)c(=O)c4[nH]ccc34)nc2n1Cc1ccc(C(F)(F)F)cc1
[3] Cc1nc2ncc(-c3cn(C)c(=O)c4[nH]ccc34)cc2n1Cc1ccc(C(F)(F)F)cc1
[4] CCS(=O)(=O)Nc1cc(-c2cn(C)c(=O)c3[nH]ccc23)nc2c1ncn2Cc1ccc(C(F)(F)F)cc1
[5] Cc1nc2ncc(-c3cn(C)c(=O)c4[nH]ccc34)cc2[nH]1
Rank the items in ascending order with respect to IC50. List labels; respect the requested ordering.
4, 2, 1, 3, 5
(4: 0.5 nM, 2: 1.6 nM, 1: 2.5 nM, 3: 4 nM, 5: 6 nM)

====

tgt: BRD4(D2) (Homo sapiens (Human))
test: Inhibitory activity against BRD4(D2), HTRF assay
Type: binding
setup conditions: class symbols
pIC50: −log10 of the molar value.
Each entry below carries its recorded pIC50.

In the examples that follow, each entry is paired with its recorded pIC50.
CCS(=O)(=O)Nc1cc(-c2cn(C)c(=O)c3[nH]ccc23)nc2c1nc(C)n2Cc1cc(F)cc(F)c1 : > 7.00
Cc1nc2ncc(-c3cn(Cc4cccnc4)c(=O)c4[nH]ccc34)cc2n1Cc1ccc(Cl)cc1 : < 6.52
CCS(=O)(=O)Nc1cc(-c2cn(C)c(=O)c3[nH]ccc23)cc2c1nc(C)n2Cc1cc(C(F)(F)F)ccc1F : > 7.00

We next turn to a different molecule, shown below.
Record request: pIC50 value, item `CCS(=O)(=O)Nc1cc(-c2cn(C)c(=O)c3[nH]ccc23)cc2c1nc(C)n2Cc1cccc(C(F)(F)F)c1`
> 7.00

Source: patent US11466034B2
